// provenance: patent US20200283478A1

Reported pIC50 by item:
studyTarget: T1, His-tagged, full-length PCSK9 (human, UniProt Q8NBP7 31-692)
T1 construct: secreted PCSK9 is autocatalytically cleaved into prodomain and catalytic domain + CRD (from S153), which stay associated; also called His-PCSK9; proprotein convertase subtilisin/kexin type 9; not shown: His tag
T1 sequence (Q8NBP7 31-692 limits assumed): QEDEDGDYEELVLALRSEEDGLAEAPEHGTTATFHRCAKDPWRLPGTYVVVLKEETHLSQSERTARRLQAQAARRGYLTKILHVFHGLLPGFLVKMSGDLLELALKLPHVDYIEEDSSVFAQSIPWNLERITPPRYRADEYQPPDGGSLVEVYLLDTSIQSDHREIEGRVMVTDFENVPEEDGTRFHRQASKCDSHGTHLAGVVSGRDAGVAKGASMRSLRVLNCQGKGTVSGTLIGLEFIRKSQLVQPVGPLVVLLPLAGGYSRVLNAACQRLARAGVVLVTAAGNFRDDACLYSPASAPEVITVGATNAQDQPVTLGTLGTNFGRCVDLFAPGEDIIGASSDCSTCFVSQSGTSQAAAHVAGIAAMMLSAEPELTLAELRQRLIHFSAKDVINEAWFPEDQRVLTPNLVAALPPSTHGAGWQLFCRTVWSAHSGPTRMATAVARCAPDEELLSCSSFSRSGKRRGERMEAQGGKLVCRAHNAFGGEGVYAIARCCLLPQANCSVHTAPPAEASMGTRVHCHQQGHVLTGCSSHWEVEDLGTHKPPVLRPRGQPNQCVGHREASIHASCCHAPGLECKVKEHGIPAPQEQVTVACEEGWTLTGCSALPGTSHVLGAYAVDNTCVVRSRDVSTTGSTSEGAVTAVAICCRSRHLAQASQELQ
measurementDescription: TR-FRET competition (PCSK9/EGF(A) assay); competitor EGF(A)-Fc;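 also: proximity signal from anti-His APC on PCSK9 paired with anti-Fc europium on the Fc ligand, read as normalized TR-FRET ratio across compound dilutions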
pIC50: −log10 of the molar value. Bridge positions count the residues as written; N and C are the ends. Square brackets hold non-standard residues; d marks the D form. Aoc = NCCCCCCCC(=O)O

Here is how some binders turned out for pIC50.
• Ac-CRL[dP]WNLQRIGLPC-NH2 (disulfide 1-14; SMILES CC[C@H](C)[C@@H]1NC(=O)[C@H](CCCNC(=N)N)NC(=O)[C@H](CCC(N)=O)NC(=O)[C@H](CC(C)C)NC(=O)[C@H](CC(N)=O)NC(=O)[C@H](Cc2c[nH]c3ccccc23)NC(=O)[C@H]2CCCN2C(=O)[C@H](CC(C)C)NC(=O)[C@H](CCCNC(=N)N)NC(=O)[C@@H](NC(C)=O)CSSC[C@@H](C(N)=O)NC(=O)[C@@H]2CCCN2C(=O)[C@H](CC(C)C)NC(=O)CNC1=O) [Compound 107 (Ac-CRLpWNLQRIGLPC-NH2)] = < 4.30
• Ac-MCLWNLKRIGSQCEY-NH2 (disulfide 2-13; SMILES CC[C@H](C)[C@@H]1NC(=O)[C@H](CCCNC(=N)N)NC(=O)[C@H](CCCCN)NC(=O)[C@H](CC(C)C)NC(=O)[C@H](CC(N)=O)NC(=O)[C@H](Cc2c[nH]c3ccccc23)NC(=O)[C@H](CC(C)C)NC(=O)[C@@H](NC(=O)[C@H](CCSC)NC(C)=O)CSSC[C@@H](C(=O)N[C@@H](CCC(=O)O)C(=O)N[C@@H](Cc2ccc(O)cc2)C(N)=O)NC(=O)[C@H](CCC(N)=O)NC(=O)[C@H](CO)NC(=O)CNC1=O) [Compound 63 (Ac-MCLWNLKRIGSQCEY-NH2)] = 4.84
• Ac-CRLPWNLQ[dR]IGLPC-NH2 (disulfide 1-14; SMILES CC[C@H](C)[C@@H]1NC(=O)[C@@H](CCCNC(=N)N)NC(=O)[C@H](CCC(N)=O)NC(=O)[C@H](CC(C)C)NC(=O)[C@H](CC(N)=O)NC(=O)[C@H](Cc2c[nH]c3ccccc23)NC(=O)[C@@H]2CCCN2C(=O)[C@H](CC(C)C)NC(=O)[C@H](CCCNC(=N)N)NC(=O)[C@@H](NC(C)=O)CSSC[C@@H](C(N)=O)NC(=O)[C@@H]2CCCN2C(=O)[C@H](CC(C)C)NC(=O)CNC1=O) [Compound 102 (Ac-CRLPWNLQrIGLPC-NH2)] = < 4.30

Turning now to a further record.
pIC50 for Ac-CRLPWNLQR[Aoc]C-NH2 (disulfide 1-11; SMILES CC(=O)N[C@H]1CSSC[C@@H](C(N)=O)NC(=O)CCCCCCCNC(=O)[C@H](CCCNC(=N)N)NC(=O)[C@H](CCC(N)=O)NC(=O)[C@H](CC(C)C)NC(=O)[C@H](CC(N)=O)NC(=O)[C@H](Cc2c[nH]c3ccccc23)NC(=O)[C@@H]2CCCN2C(=O)[C@H](CC(C)C)NC(=O)[C@H](CCCNC(=N)N)NC1=O) [Compound 86 (Ac-CRLPWNLQR-(Aoc)-C-NH2)] is < 4.30
